Where do these numbers come from? They come from PubChem BioAssay (NCI).

Test system: HCT-116 colon
Test: NCI-60 one-dose screen, 48 h
Settings: 10 µM unless noted
The panel holds about 83,000 compounds, 20% with a hit somewhere; the sample as a whole holds those more often. Active and inactive are the calls of the source. How the source made its calls: active means growth percent below 10; inactive means the rest.
Answer with one of the outcomes active, inactive

The following compounds have reported results that may help.
>>> print(df.to_string())
                        structure_as_smiles  qualitative_label
0  Cc1cc(NCc2cc(Nc3ccnc4cc(Cl)ccc34)ccc2F)nc(N2CCN(c3ccccc3)CC2)n1             active
1                NC1=NCc2nc3ccccc3c(=O)n2C1           inactive
2  COC(=O)CCC1=C(C)C2=NC1=CC1=NC(=CC3=NC(=Cc4[nH]c(/c(=C(/C)O)c4C)=C2)C(C(C)=O)=C3C)C(C)=C1CCC(=O)OC           inactive
3  CCN(CC)S(=O)(=O)c1cccc(-c2ccc3c(NC(=O)C4CC4)n[nH]c3c2)c1           inactive

Query: Would you mind telling me which call this test gave CCN(CC)c1ccc(C(=O)c2ccc(N(CC)CC)cc2)cc1 ?
Result: inactive

Query: How was N#Cc1c(-c2cccc(Cl)c2)cc(-c2cccc(F)c2)[nH]c1=O classified in this test?
Result: inactive

Query: What did this assay record as the result for CN(C)CCC=C1c2ccccc2C(C)(C)c2ccccc21 ?
Result: inactive

Query: I'd appreciate the recorded outcome for C=C(C)[C@@H]1CC=C2c3sc(-c4ccc(C)cc4)nc3C[C@@H](C)[C@]2(C)C1 from this test.
Result: inactive

Query: Hi team, can someone confirm the assay call for COc1ccc(/C=C/c2c(C(=O)/C=C/c3ccc(F)cc3)c(C)nc3ccccc23)cc1 ?
Result: active

---

Tested on: UACC-62 melanoma
Assay: NCI-60 one-dose screen, 48 h (100 = growth as untreated, 0 = no growth, -100 = all killed)
Conditions: 10 µM unless noted
The panel holds about 83,000 compounds, 20% with a hit somewhere; the sample as a whole holds those more often.
Note to self: class = bucket of growth, per bottom end: < 30%; midrange: ≥ 30% and < 80%; top end: ≥ 80%

molecule	qualitative-label
N=C(N)c1ccc(-c2ccc(-c3cncc4ccccc34)s2)s1	bottom end
COc1ccc(-c2ccc3c(c2)sc2nc(-c4ccc(F)cc4)cn23)cc1	midrange
Cc1cc(=O)[nH]c(N=Nc2c(O)[nH]c3ccccc23)n1	top end

Query: Class label required: O=C1/C(=C/c2ccc(F)cc2)C=C(c2ccccc2)N1CCc1ccccc1
Result: midrange

Query: Determine which band this molecule sits in: C=C1C(=O)O[C@H]2[C@H]1CC/C(COC(=O)C(=O)c1c[nH]c3ccc(OC)cc13)=C\CC[C@@]1(C)O[C@@H]21
Result: bottom end

Query: Bin? CC(=O)[C@@H]1CC[C@]2(COS(=O)(=O)c3ccc(C)cc3)CC[C@]3(C)[C@H](CC[C@@H]4[C@@]5(C)CCCNC(C)(C)[C@@H]5CC[C@]43C)[C@@H]12
Result: midrange

Query: Determine which band this molecule sits in: COc1ccc(OC)c2c1[nH]c(=O)c1c3ncccc3cn21
Result: bottom end

Query: Dear colleague, I would appreciate it if you could identify the bin for COc1cc(C2CC(c3ccc(Nc4ccnc5cc(Cl)ccc45)cc3)=NN2C=O)cc(OC)c1OC (centres undefined) and reply at your convenience.
Result: midrange

Query: GET /class?item= CCOC(=O)c1c2c(n3ccc(NC(=O)OC(C)(C)C)cc13)C(=O)c1ncccc1C2=O
Result: bottom end

Query: # classify by growth band: C=CCOC1=CC(=O)c2ccccc2C1=O
Result: midrange

Query: Dear colleague, I would appreciate it if you could identify the bin for COc1ccccc1N1C(=O)/C(=C/C2=Cc3ccccc3OC2)SC1=S and reply at your convenience.
Result: top end
